ASSAYED SYSTEM: T1, RTL1000
T1 construct: Coated onto ELISA plates at 1 µg/ml; also called recombinant T cell receptor ligand
TEST: competition ELISA, RTL1000 coated, competitor against rmCD74 (50 nM), one-binding-site fit
Measured pIC50 accompanies every entry in the list below.
The quantity pIC50 is defined as the negative base-10 logarithm of the molar concentration.

Task item: Param item = TEDHVMHLLQNAD (also called human CD74 α-helix 1; alpha helix 1) [CD74 α-helix 1 peptide (SEQ ID NO: 2)] ; retrieve measured pIC50.
Reply: 5.17

Task item: Param item: KGSFPENLRHLKNTMET (also called human CD74 α-helix 2; alpha helix 2) [CD74 α-helix 2 peptide (SEQ ID NO: 4)]
Reply: 4.47
